Biological target: Human HDAC1 (Homo sapiens, UniProt Q13547)
Construct: full length with C-terminal His-tag and C-terminal FLAG-tag; His-tag (C); FLAG-tag (C); host or cells: baculovirus expression system
Sequence (Q13547 whole entry): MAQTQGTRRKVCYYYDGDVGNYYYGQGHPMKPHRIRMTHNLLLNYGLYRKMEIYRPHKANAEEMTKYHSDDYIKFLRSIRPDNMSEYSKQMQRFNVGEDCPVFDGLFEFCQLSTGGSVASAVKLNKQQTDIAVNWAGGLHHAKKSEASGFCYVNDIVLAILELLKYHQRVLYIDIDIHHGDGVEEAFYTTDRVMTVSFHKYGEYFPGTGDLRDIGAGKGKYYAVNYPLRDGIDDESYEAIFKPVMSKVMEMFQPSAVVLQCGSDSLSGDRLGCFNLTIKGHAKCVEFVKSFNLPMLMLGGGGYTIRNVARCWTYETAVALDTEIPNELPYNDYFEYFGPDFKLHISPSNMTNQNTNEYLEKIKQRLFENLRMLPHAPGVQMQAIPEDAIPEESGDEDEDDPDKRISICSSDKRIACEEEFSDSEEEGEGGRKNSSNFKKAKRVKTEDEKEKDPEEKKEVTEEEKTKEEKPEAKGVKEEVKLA
Experiment: Biochemical HDAC inhibition assay, acetylated AMC-labeled peptide substrate, HDAC1
Settings: 2 hours at 30° C., read-out: IC50 (nM) HDAC 1
The entries below are paired with their reported IC50.

Observe how each entry below is paired with its result.
CC(=O)Nc1cc(-c2ccnc(N(Cc3ccc(C(=O)NO)cc3F)c3cnccn3)c2)ccn1    1000 to 10000 nM
CC(=O)Nc1ccc(-c2ccnc(N(Cc3ccc(C(=O)NO)cc3)c3cnccn3)c2)cn1    1000 to 10000 nM
CC(=O)Nc1ccc(-c2ccnc(N(Cc3ccc(C(=O)NO)cc3F)c3cnccn3)c2)cn1    1000 to 10000 nM
O=C(NO)c1ccc(CN(c2cnccn2)c2cc(-c3cc[nH]n3)ccn2)cc1    1000 to 10000 nM
O=C(NO)c1ccc(CN(c2cnccn2)c2cc(-c3ccc4[nH]ccc4c3)ccn2)cc1    500 to 1000 nM

// query What does the data say about its IC50? Entry: O=C(NO)c1ccc(CN(c2cnccn2)c2cc(-c3cnc4[nH]ccc4c3)ccn2)cc1
// result 1000 to 10000 nM

// query Proceed to O=C(NO)c1ccc(CN(c2cnccn2)c2cc(-c3ccoc3)ccn2)cc1
// result 500 to 1000 nM

// query What do you get for O=C(NO)c1ccc(CN(c2cnccn2)c2cc(-c3c[nH]c4ncccc34)ccn2)cc1 ?
// result 1000 to 10000 nM
